# Evaluation Parakeratosis (mean of 4 mice) values compiled below
tested on: parakeratosis and skin roughness caused by oleic acid on the back of hairless mice; experiment: Parakeratosis inhibition effect test: oleic acid applied to the back of hairless mice, visual skin roughness and parakeratosis level; assay type: in vivo, hairless mice (HR-1); details: sample 3 weight % in aqueous 30 weight % ethanol; after 10 weight % oleic acid, 3 days; range 1.0 to 3.0, higher = severer; control 2.0
API doc: respond with a numeric literal and nothing else, no unit.

Consider the following illustrative entries.
- Compound: "O=C(O)CC[C@H](NC(=O)c1ccccc1)C(=O)O"
  Reported Value: 1.6
- Compound: "CC(=O)N[C@@H](CCC(=O)O)C(=O)O"
  Reported Value: 1.2
- Compound: "N=C(N)N1CCC(C(=O)O)CC1 [guanidinoisonipecotinic acid, reference compound]"
  Reported Value: 2.2
- Compound: "CNCC(=O)O"
  Reported Value: 1.2
- Compound: "CCCCOC(=O)CN.Cl [glycine n-butyl ester HCL, glycine n-butyl ester hydrochloride]"
  Reported Value: 1.5
- Compound: "CCOC(=O)CN.Cl [glycine ethyl ester HCL, glycine ethyl ester hydrochloride]"
  Reported Value: 1.1

Param item: O=C(O)CC[C@H](NS(=O)(=O)c1ccccc1)C(=O)O ; param system: parakeratosis and skin roughness caused by oleic acid on the back of hairless mice; output Evaluation Parakeratosis (mean of 4 mice): 1.6

====

test system: parakeratosis and skin roughness caused by oleic acid on the back of hairless mice; experiment: Parakeratosis inhibition effect test: oleic acid applied to the back of hairless mice, visual skin roughness and parakeratosis level; assay type: in vivo, hairless mice (HR-1); conditions: sample 3 weight % in aqueous 30 weight % ethanol; after 10 weight % oleic acid, 3 days; range 1.0 to 3.0, higher = severer; control 2.0
Some molecules, each annotated with its measured Evaluation Parakeratosis (mean of 4 mice).

Some solved cases for reference:
- Molecule: "O=C(O)C1CCNCC1"
  Reported Value: 1.5
- Molecule: "CC(=O)N[C@@H](CC(=O)O)C(=O)O"
  Reported Value: 1.5
- Molecule: "O=C(O)CNC(=O)Cc1ccccc1"
  Reported Value: 1.1

Here is the next item to consider.
Query NCC(N)=O [glycine amide, reference compound] yields Evaluation Parakeratosis (mean of 4 mice) of 2.1

Origin of values: patent US8586638B2
